# credit: patent US12331057B2

Entries and their measured IC50 follow.
- assay-target: Z-AAT (Homo sapiens, UniProt P01009, E366K)
- Construct: Purified Z-AAT protein from human plasma; Vertex Cambridge Sample 4942)
- Sequence (P01009 25-418 E366K): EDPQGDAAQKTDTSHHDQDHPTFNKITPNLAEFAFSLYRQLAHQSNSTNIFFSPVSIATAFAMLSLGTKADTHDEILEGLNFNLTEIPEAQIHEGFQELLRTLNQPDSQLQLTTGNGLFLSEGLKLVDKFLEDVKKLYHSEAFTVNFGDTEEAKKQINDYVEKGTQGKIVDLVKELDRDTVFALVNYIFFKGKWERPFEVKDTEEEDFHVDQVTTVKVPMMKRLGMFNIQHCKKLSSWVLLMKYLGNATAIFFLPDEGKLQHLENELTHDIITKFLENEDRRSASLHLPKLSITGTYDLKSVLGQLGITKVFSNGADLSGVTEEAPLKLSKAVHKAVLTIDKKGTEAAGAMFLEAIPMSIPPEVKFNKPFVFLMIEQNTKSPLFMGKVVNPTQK
- assay-method-text: Biochemical Assay (Z-AAT Elastase Activity Assay)
- condition-context: purified Z-AAT protein from human plasma and purified human neutrophil elastase

> print(dat)
                                   compound  value.observed
1  COCC(C)(C)c1c(-c2ccc(C(=O)NCCCS(C)(=O)=O)cc2)c2cc3[nH]ncc3cc2n1-c1ccc(F)cc1       > 1000 nM
2  CC(C)(CC#N)c1c(-c2ccc(P(C)(C)=O)cc2)c2cc3[nH]ncc3cc2n1-c1ccc(F)cc1  400 to 1000 nM

May I ask what IC50 has been recorded for COCC1(c2c(-c3ccc(C(=O)O)cc3)c3cc4[nH]ncc4cc3n2-c2ccc(F)cc2)CCOCC1 ?
> 1000 nM

May I ask what IC50 has been recorded for O=C(O)c1ccc(-c2c(C3CCOCC3)n(-c3ccc(F)cc3)c3cc4cn[nH]c4cc23)c(OC2CCC2)n1 ?
> 1000 nM

May I ask what IC50 has been recorded for O=C(O)c1ccc(-c2c(C3CCOCC3)n(-c3ccc(F)c(F)c3)c3cc4cn[nH]c4cc23)c(F)c1 ?
> 1000 nM

May I ask what IC50 has been recorded for COCC(C)(C)c1c(-c2ccc(P(C)(C)=O)cc2)c2cc3[nH]ncc3cc2n1-c1ccc(F)cc1 ?
> 1000 nM

May I ask what IC50 has been recorded for CC1(c2c(-c3ccc(C(=O)O)cc3)c3cc4[nH]ncc4cc3n2-c2ccc(F)cc2)CCOCC1 ?
400 to 1000 nM

May I ask what IC50 has been recorded for COc1nc(C(=O)O)ccc1-c1c(C2CCCOC2)n(-c2ccc(F)c(C)c2)c2cc3cn[nH]c3cc12 (stereo not drawn) ?
> 30000 nM

May I ask what IC50 has been recorded for Fc1ccc(-n2c(C3CCOCC3)c(-c3ccc(OC4CCOCC4)nc3)c3cc4[nH]ncc4cc32)cc1 ?
> 30000 nM

May I ask what IC50 has been recorded for COCC(C)(C)c1c(-c2cn(CC(=O)O)nc2C)c2cc3[nH]ncc3cc2n1-c1ccc(F)cc1 ?
> 30000 nM

====

- assay-target: Z-AAT (Homo sapiens, UniProt P01009, E366K)
- Construct: Purified Z-AAT protein from human plasma; Vertex Cambridge Sample 4942)
- assay-method-text: Biochemical Assay (Z-AAT Elastase Activity Assay)
- condition-context: purified Z-AAT protein from human plasma and purified human neutrophil elastase
pIC50: −log10 of the molar value.
Entries and their measured pIC50 follow.

molecule	pIC50
CC(C)c1c(-c2ccc(C(=O)O)s2)c2cc3[nH]ncc3cc2n1-c1ccc(F)cc1	< 6.00

Provide value of pIC50 for this record tested with Z-AAT (Homo sapiens, UniProt P01009, E366K): COCC(C)(C)c1c(-c2ccc(C(=O)N[C@H]3C[C@@H](S(C)(=O)=O)C3)cc2)c2cc3[nH]ncc3cc2n1-c1ccc(F)cc1
< 4.52

Provide value of pIC50 for this record tested with Z-AAT (Homo sapiens, UniProt P01009, E366K): CC(C)(CS(C)(=O)=O)NC(=O)c1ccc(-c2c(C3CCOCC3)n(-c3ccc(F)cc3)c3cc4cn[nH]c4cc23)cc1
< 4.52

Provide value of pIC50 for this record tested with Z-AAT (Homo sapiens, UniProt P01009, E366K): CC(C)(CC#N)c1c(-c2ccc(C(=O)O)cc2)c2cc3[nH]ncc3cc2n1CC1COC1
< 4.52

Provide value of pIC50 for this record tested with Z-AAT (Homo sapiens, UniProt P01009, E366K): Cc1cc(-n2c(C(C)C)c(-c3cccc(C(=O)O)c3)c3cc4[nH]ncc4cc32)ccc1F
< 6.00

Provide value of pIC50 for this record tested with Z-AAT (Homo sapiens, UniProt P01009, E366K): CS(=O)(=O)C1CC(NC(=O)c2ccc(-c3c(C4CCOCC4)n(-c4ccc(F)cc4)c4cc5cn[nH]c5cc34)cc2)C1 (stereo not shown)
< 6.00

====

Entries and their measured IC50 follow.
- assay-target: Z-AAT (Homo sapiens, UniProt P01009, E366K)
- Construct: Purified Z-AAT protein from human plasma; Vertex Cambridge Sample 4942)
- assay-method-text: Biochemical Assay (Z-AAT Elastase Activity Assay)
- condition-context: purified Z-AAT protein from human plasma and purified human neutrophil elastase

Provide value of IC50 for this record tested with Z-AAT (Homo sapiens, UniProt P01009, E366K): CC(C)(CC#N)c1c(-c2ccc(C(=O)O)cc2)c2cc3[nH]ncc3cc2n1Cc1cccnc1Cl [Compound 319]
> 1 µM

Provide value of IC50 for this record tested with Z-AAT (Homo sapiens, UniProt P01009, E366K): CCC1(c2c(-c3cnn(CC(N)=O)c3)c3cc4[nH]ncc4cc3n2-c2ccc(F)cc2)COC1 [Compound 277]
> 1 µM

Provide value of IC50 for this record tested with Z-AAT (Homo sapiens, UniProt P01009, E366K): COCc1c(-c2ccc(C(=O)O)cc2)c2cc3[nH]ncc3cc2n1-c1ccc(F)c(C)c1 [Compound 12]
> 30 µM

Provide value of IC50 for this record tested with Z-AAT (Homo sapiens, UniProt P01009, E366K): CC(C)c1c(-c2ccc(C(=O)O)cc2C#N)c2cc3[nH]ncc3cc2n1-c1ccc(F)cc1 [Compound 56]
< 0.4 µM

Provide value of IC50 for this record tested with Z-AAT (Homo sapiens, UniProt P01009, E366K): NC(=O)Cn1cc(-c2c(C3CCOCC3)n(-c3ccc(F)cc3)c3cc4cn[nH]c4cc23)cn1 [Compound 290]
> 1 µM

====

- assay-target: Z-AAT (Homo sapiens, UniProt P01009, E366K)
- Construct: Purified Z-AAT protein from human plasma; Vertex Cambridge Sample 4942)
- assay-method-text: Biochemical Assay (Z-AAT Elastase Activity Assay)
- condition-context: purified Z-AAT protein from human plasma and purified human neutrophil elastase
pIC50: −log10 of the molar value.
experimental-readout: pIC50

// solved cases for pIC50 follow
compound	assay-target	value-observed
O=C1CCCN1c1ccc(-c2c(C3CCOCC3)n(-c3ccc(F)cc3)c3cc4cn[nH]c4cc23)cn1 [Compound 279]	Z-AAT (Homo sapiens, UniProt P01009, E366K)	< 4.52
CC(C)c1c(-c2ccc(C(=O)O)nc2C(F)F)c2cc3[nH]ncc3cc2n1-c1ccc(F)cc1 [Compound 84]	Z-AAT (Homo sapiens, UniProt P01009, E366K)	< 6.00

May I ask what pIC50 has been recorded for O=C(O)c1ccc(-c2c(C3CCOCC3)n(-c3ccc(F)cc3)c3cc4cn(C5O[C@H](C(=O)O)[C@@H](O)[C@H](O)[C@H]5O)nc4cc23)cc1 (single isomer, unassigned) [Compound 293] ?
< 4.52

May I ask what pIC50 has been recorded for CC(C)c1c(-c2ccc(C(=O)O)cc2OC2CCOC2)c2cc3[nH]ncc3cc2n1-c1ccc(F)cc1 (stereo not shown) [Compound 75] ?
< 6.00
